Data origin, for the record: paper PMC6985905

test: pharmacokinetics in mice; settings: mouse, in vivo
Endpoint name: AUC(0-t) (µg·h/mL)
Unit µg·h/mL implied. Number only.

# AUC(0-t) (molecule: `CC(C)(C)c1cc(NC(=O)Nc2ccc(-c3cn4c(n3)sc3cc(OCCN5CCOCC5)ccc34)cc2)no1` ) is 155

----------
test: pharmacokinetics in mice; conditions: mouse, in vivo
Endpoint name: half-life (h)
Unit h implied. Number only.

# half-life (compound: CC(C)(C)c1cc(NC(=O)Nc2ccc(-c3cn4c(n3)sc3cc(OCCN5CCOCC5)ccc34)cc2)no1 [quizartinib] ) is 5.7
